The entries below are paired with their reported Barnyard grass (%) control effect.
System: barnyard grass
Experimental protocol: Test of herbicidal activity, post-seedling stem and leaf spray in greenhouse, barnyard grass
Format: in vivo
Condition label: post-seedling stem and leaf spray, dose 75 g a.i/ha
Entry rule: numbers only, all in %.

Here are 2 compounds together with their reported answers.
| Compound | Observed value |
| --- | --- |
| Cc1nn(Cc2c(S(C)(=O)=O)ccc(C(=O)c3c(C4CC4)nn(C)c3OC(=O)c3c(C)nn(C)c3Cl)c2Cl)c(=O)o1 | 75 |
| CS(=O)(=O)c1ccc(C(=O)C2C(=O)CCCC2=O)c(Cl)c1 [Control compound A, reference compound] | 30 |

Dear colleague, I am looking for the recorded Barnyard grass (%) control effect of the following compound: `Cc1nn(Cc2c(S(C)(=O)=O)ccc(C(=O)C3C(=O)CCCC3=O)c2Cl)c(=O)o1` 80

###

The entries below are paired with their reported Solanum nigrum (%) control effect.
Tested on: Solanum nigrum
Experimental protocol: Test of herbicidal activity, post-seedling stem and leaf spray in greenhouse, Solanum nigrum
Assay type: in vivo
Condition label: post-seedling stem and leaf spray, dose 150 g a.i/ha
Entry rule: numbers only, all in %.

| Compound | Units symbol | Observed value |
| --- | --- | --- |
| Cc1nn(Cc2c(S(C)(=O)=O)ccc(C(=O)C3C(=O)CCCC3=O)c2Cl)c(=O)o1 | % | 95 |
| CCS(=O)(=O)c1ccc(C(=O)c2c(C)nn(C)c2OC(=O)c2cc(C)nn2C)c(Cl)c1Cn1nc(C)oc1=O | % | 90 |

Dear colleague, I am looking for the recorded Solanum nigrum (%) control effect of the following compound: `CCOC1=C(C(=O)c2ccc(S(C)(=O)=O)c(Cn3nc(C)oc3=O)c2Cl)C(=O)CCC1` 95

Dear colleague, I am looking for the recorded Solanum nigrum (%) control effect of the following compound: CS(=O)(=O)c1ccc(C(=O)C2C(=O)CCCC2=O)c(Cl)c1 [Control compound A, reference compound] 90

Dear colleague, I am looking for the recorded Solanum nigrum (%) control effect of the following compound: CS(=O)(=O)c1ccc(C(=O)C2C(=O)CCCC2=O)c(Cl)c1CN1CCOCC1 [Control compound C, reference compound] 65

###

Tested on: abutilon
Experimental protocol: Test of herbicidal activity, post-seedling stem and leaf spray in greenhouse, abutilon
Format: in vivo
Condition label: post-seedling stem and leaf spray, dose 75 g a.i/ha
The entries below are paired with their reported Abutilon (%) control effect.
Entry rule: numbers only, all in %.

Here are 4 compounds together with their reported answers.
| Compound | Units symbol | Abutilon (%) control effect |
| --- | --- | --- |
| Cc1nn(Cc2c(S(C)(=O)=O)ccc(C(=O)c3c(C4CC4)nn(C)c3OC(=O)c3c(C)nn(C)c3Cl)c2Cl)c(=O)o1 [Compound 201] | % | 80 |
| CCS(=O)(=O)c1ccc(C(=O)c2c(C)nn(C)c2OC(=O)c2cc(C)nn2C)c(Cl)c1Cn1nc(C)oc1=O [Compound 224] | % | 80 |
| CS(=O)(=O)c1ccc(C(=O)C2C(=O)CCCC2=O)c(Cl)c1CN1CCOCC1 [Control compound C, reference compound] | % | 55 |
| Cc1nn(Cc2c(S(C)(=O)=O)ccc(C(=O)c3c(C)nn(C)c3OC(=O)c3cnn(C)c3Cl)c2Cl)c(=O)o1 [Compound 218] | % | 80 |

Dear colleague, I am looking for the recorded Abutilon (%) control effect of the following compound: CCOC1=C(C(=O)c2ccc(S(C)(=O)=O)c(Cn3nc(C)oc3=O)c2Cl)C(=O)CCC1 [Compound 32] 90

Dear colleague, I am looking for the recorded Abutilon (%) control effect of the following compound: Cc1nn(Cc2c(S(C)(=O)=O)ccc(C(=O)C3C(=O)CCCC3=O)c2Cl)c(=O)o1 [Compound 1] 90

Dear colleague, I am looking for the recorded Abutilon (%) control effect of the following compound: Cc1nn(Cc2c(S(C)(=O)=O)ccc(C(=O)c3c(C)nn(C)c3OC(=O)c3c(C(F)(F)F)nn(C)c3Cl)c2Cl)c(=O)o1 [Compound 204] 80

###

The entries below are paired with their reported Corn (%) safety (crop damage).
Test system: corn
Experimental protocol: Safety testing on corn, stem and leaf spray in greenhouse
Format: in vivo
Condition label: stem and leaf spray, dose 300 g a.i/ha; 0 = no damage to crops, 100% = complete killing or severe inhibition
Entry rule: numbers only, all in %.

Here are 2 molecules together with their reported answers.
| Molecule | Study system | Units symbol | Corn (%) safety (crop damage) |
| --- | --- | --- | --- |
| Cc1nn(Cc2c(S(C)(=O)=O)ccc(C(=O)c3c(C4CC4)nn(C)c3OC(=O)c3c(C)nn(C)c3Cl)c2Cl)c(=O)o1 [Compound 201] | corn | % | 0 |
| Cc1nn(Cc2c(S(C)(=O)=O)ccc(C(=O)c3c(C)nn(C)c3O)c2Cl)c(=O)o1 [Compound 58] | corn | % | 0 |

Dear colleague, I am looking for the recorded Corn (%) safety (crop damage) of the following molecule: CS(=O)(=O)c1ccc(C(=O)C2C(=O)CCCC2=O)c(Cl)c1 [Control compound A, reference compound] 5

Dear colleague, I am looking for the recorded Corn (%) safety (crop damage) of the following molecule: Cc1nn(Cc2c(S(=O)(=O)C(C)C)ccc(C(=O)c3c(C)nn(C)c3O)c2Cl)c(=O)o1 [Compound 100] 0

Dear colleague, I am looking for the recorded Corn (%) safety (crop damage) of the following molecule: Cc1nn(C)c(O)c1C(=O)c1ccc(S(C)(=O)=O)cc1Cl [Control compound B, reference compound] 2

###

Test system: rice
Experimental protocol: Safety testing on rice, stem and leaf spray in greenhouse
Type: in vivo
Condition label: stem and leaf spray, dose 150 g a.i/ha
Experimental readout: Rice (%) safety (crop damage)
Entry rule: numbers only, all in %.

Dear colleague, I am looking for the recorded Rice (%) safety (crop damage) of the following compound: Cc1nn(Cc2c(S(C)(=O)=O)ccc(C(=O)c3c(C)nn(C)c3O)c2Cl)c(=O)o1 [Compound 58] 0

Dear colleague, I am looking for the recorded Rice (%) safety (crop damage) of the following compound: CS(=O)(=O)c1ccc(C(=O)C2C(=O)CCCC2=O)c(Cl)c1CN1CCOCC1 [Control compound C, reference compound] 75

Dear colleague, I am looking for the recorded Rice (%) safety (crop damage) of the following compound: CCS(=O)(=O)c1ccc(C(=O)C2C(=O)CCCC2=O)c(Cl)c1Cn1nc(C)oc1=O [Compound 6] 5

Dear colleague, I am looking for the recorded Rice (%) safety (crop damage) of the following compound: Cc1nn(Cc2c(S(=O)(=O)C(C)C)ccc(C(=O)c3c(C)nn(C)c3O)c2Cl)c(=O)o1 [Compound 100] 0

Dear colleague, I am looking for the recorded Rice (%) safety (crop damage) of the following compound: CCS(=O)(=O)c1ccc(C(=O)c2c(C)nn(C)c2OC(=O)c2cc(C)nn2C)c(Cl)c1Cn1nc(C)oc1=O [Compound 224] 2

Dear colleague, I am looking for the recorded Rice (%) safety (crop damage) of the following compound: CS(=O)(=O)c1ccc(C(=O)C2C(=O)CCCC2=O)c(Cl)c1 [Control compound A, reference compound] 45

Dear colleague, I am looking for the recorded Rice (%) safety (crop damage) of the following compound: Cc1nn(C)c(O)c1C(=O)c1ccc(S(C)(=O)=O)cc1Cl [Control compound B, reference compound] 40

Dear colleague, I am looking for the recorded Rice (%) safety (crop damage) of the following compound: Cc1nn(Cc2c(S(C)(=O)=O)ccc(C(=O)c3c(C4CC4)nn(C)c3OC(=O)c3c(C)nn(C)c3Cl)c2Cl)c(=O)o1 [Compound 201] 0

###

The entries below are paired with their reported Abutilon (%) control effect.
Test system: abutilon
Experimental protocol: Test of herbicidal activity, post-seedling stem and leaf spray in greenhouse, abutilon
Assay type: in vivo
Condition label: post-seedling stem and leaf spray, dose 75 g a.i/ha
Entry rule: numbers only, all in %.

Here are 2 compounds together with their reported answers.
| Compound | Abutilon (%) control effect |
| --- | --- |
| Cc1nn(Cc2c(S(C)(=O)=O)ccc(C(=O)c3c(C)nn(C)c3OC(=O)c3cn(C)nc3C(F)(F)F)c2Cl)c(=O)o1 | 88 |
| Cc1nn(C)c(O)c1C(=O)c1ccc(S(C)(=O)=O)cc1Cl [Control compound B, reference compound] | 55 |

Pending compound:
Dear colleague, I am looking for the recorded Abutilon (%) control effect of the following compound: CS(=O)(=O)c1ccc(C(=O)C2C(=O)CCCC2=O)c(Cl)c1 [Control compound A, reference compound] 80

###

Test system: rice
Experimental protocol: Safety testing on rice, stem and leaf spray in greenhouse
Assay type: in vivo
Condition label: stem and leaf spray, dose 75 g a.i/ha
Experimental readout: Rice (%) safety (crop damage)
Entry rule: numbers only, all in %.

| Compound | Study system | Rice (%) safety (crop damage) |
| --- | --- | --- |
| CS(=O)(=O)c1ccc(C(=O)C2C(=O)CCCC2=O)c(Cl)c1CN1CCOCC1 [Control compound C, reference compound] | rice | 55 |
| CCS(=O)(=O)c1ccc(C(=O)C2C(=O)CCCC2=O)c(Cl)c1Cn1nc(C)oc1=O | rice | 0 |

Dear colleague, I am looking for the recorded Rice (%) safety (crop damage) of the following compound: `CCS(=O)(=O)c1ccc(C(=O)c2c(C)nn(C)c2OC(=O)c2cc(C)nn2C)c(Cl)c1Cn1nc(C)oc1=O` 0

Dear colleague, I am looking for the recorded Rice (%) safety (crop damage) of the following compound: `Cc1nn(Cc2c(S(C)(=O)=O)ccc(C(=O)c3c(C)nn(C)c3O)c2Cl)c(=O)o1` 0

Dear colleague, I am looking for the recorded Rice (%) safety (crop damage) of the following compound: CS(=O)(=O)c1ccc(C(=O)C2C(=O)CCCC2=O)c(Cl)c1 [Control compound A, reference compound] 25

Dear colleague, I am looking for the recorded Rice (%) safety (crop damage) of the following compound: Cc1nn(C)c(O)c1C(=O)c1ccc(S(C)(=O)=O)cc1Cl [Control compound B, reference compound] 20

Dear colleague, I am looking for the recorded Rice (%) safety (crop damage) of the following compound: `Cc1nn(Cc2c(S(C)(=O)=O)ccc(C(=O)c3c(C4CC4)nn(C)c3OC(=O)c3c(C)nn(C)c3Cl)c2Cl)c(=O)o1` 0

Dear colleague, I am looking for the recorded Rice (%) safety (crop damage) of the following compound: `Cc1nn(Cc2c(S(=O)(=O)C(C)C)ccc(C(=O)c3c(C)nn(C)c3O)c2Cl)c(=O)o1` 0
